Cited source: the supplement of paper PMC10515830

Reported difference in excitability values for a set of compounds
# System: Danio rerio larvae (5 dpf)
# Measurement Description: difference in excitability vs DMSO (percentage points); higher = more excitable than DMSO
# Protocol Conditions: 10 µM; exposure time 6 h
Where a name gives a salt, the structure may show the parent alone.
Experimental Endpoint: difference in excitability

Cn1c(=O)c2c(ncn2C)n(C)c1=O: 5.33
CC(C)(C)NCC(O)COc1cccc2c1CCC(=O)N2 (centres undefined) [Carteolol (hydrochloride)]: 4.97
CCCSc1nc(N[C@@H]2C[C@H]2c2ccc(F)c(F)c2)c2nnn([C@@H]3C[C@H](OCCO)[C@@H](O)[C@H]3O)c2n1: 4.33
CCCCc1oc2ccc(NS(C)(=O)=O)cc2c1C(=O)c1ccc(OCCCN(CCCC)CCCC)cc1 [Dronedarone (hydrochloride)]: 7.9
